Hey, just so you know, these numbers are from patent US20260176252A1.

# protocol text: Encapsulation efficiency of LNP preparations (unlysed and lysed LNPs)
# Assay type: physicochemical
# condition description: Table D; LNP formulation ratio 47.5:40:2.5:10, ABE mRNA + PCSK9 sgRNA 1:1
# Procedure: Concentration of NA is determined by Qubit microRNA kit (for siRNA) or HS RNA kit (for mRNA) per manufacturer's instructions. Encapsulation efficiency is determined by measuring unlysed and lysed LNPs.
property name: EE (%)

| molecule | EE (%) |
| --- | --- |
| CCCCCCC(CCC(=O)OCC(COC(=O)CCCCCC(=O)OCC=C(C)CCCC(C)CCCC(C)CCCC(C)C)COC(=O)CCCCCC(=O)OCC=C(C)CCCC(C)CCCC(C)CCCC(C)C)OC(=O)NCCN1CCCC1 (stereo not drawn) [Example 15] | 98.5 |
| CCCCCCC(CCC(=O)OCC(COC(=O)CCCCCC(=O)OC/C=C(\C)CCC=C(C)C)COC(=O)CCCCCC(=O)OC/C=C(\C)CCC=C(C)C)OC(=O)NCCN1CCCC1 (stereo not drawn) [Example 7] | 91.7 |
| CCCCCCC(CCC(=O)OCC(COC(=O)CCCCCC(=O)OCCC(C)CCC=C(C)C)COC(=O)CCCCCC(=O)OCCC(C)CCC=C(C)C)OC(=O)NCCN1CCCC1 (stereo not drawn) [Example 9] | 85.3 |
| CCCCCCC(CCC(=O)OCC(COC(=O)CCCCCC(=O)OC/C=C(/C)CCC=C(C)C)COC(=O)CCCCCC(=O)OC/C=C(/C)CCC=C(C)C)OC(=O)NCCN1CCCC1 (stereo not drawn) [Example 11] | 90.5 |
| CCCCCCC(CCC(=O)OCC(COC(=O)CCCCCC(=O)OCC=C(C)CCC=C(C)CCC=C(C)C)COC(=O)CCCCCC(=O)OCC=C(C)CCC=C(C)CCC=C(C)C)OC(=O)NCCN1CCCC1 (stereo not drawn) [Example 14] | 97.7 |
| CCCCCCC(CCC(=O)OCC(COC(=O)CCCCCC(=O)OCCC(C)CCCC(C)C)COC(=O)CCCCCC(=O)OCCC(C)CCCC(C)C)OC(=O)NCCN1CCCC1 (stereo not drawn) [Example 8] | 94.3 |
| C=C(C)C(CC=C(C)C)COC(=O)CCCCCC(=O)OCC(COC(=O)CCCCCC(=O)OCC(CC=C(C)C)C(=C)C)COC(=O)CCC(CCCCCC)OC(=O)NCCN1CCCC1 (stereo not drawn) [Example 12] | 87.7 |
| C=CC(C)(CCC=C(C)C)OC(=O)CCCCCC(=O)OCC(COC(=O)CCCCCC(=O)OC(C)(C=C)CCC=C(C)C)COC(=O)CCC(CCCCCC)OC(=O)NCCN1CCCC1 (stereo not drawn) [Example 10] | 99.1 |
| C=CC(C)(CCC=C(C)CCC=C(C)C)OC(=O)CCCCCC(=O)OCC(COC(=O)CCCCCC(=O)OC(C)(C=C)CCC=C(C)CCC=C(C)C)COC(=O)CCC(CCCCCC)OC(=O)NCCN1CCCC1 (stereo not drawn) [Example 13] | 96.1 |

----------
# protocol text: pKa of LNP preparations via TNS assay
# Assay type: physicochemical
# condition description: Table D; LNP formulation ratio 47.5:40:2.5:10
property name: pKa

| compound | pKa |
| --- | --- |
| CCCCCCC(CCC(=O)OCC(COC(=O)CCCCCC(=O)OC/C=C(\C)CCC=C(C)C)COC(=O)CCCCCC(=O)OC/C=C(\C)CCC=C(C)C)OC(=O)NCCN1CCCC1 (stereo not drawn) [Example 7] | 7.17 |
| C=CC(C)(CCC=C(C)CCC=C(C)C)OC(=O)CCCCCC(=O)OCC(COC(=O)CCCCCC(=O)OC(C)(C=C)CCC=C(C)CCC=C(C)C)COC(=O)CCC(CCCCCC)OC(=O)NCCN1CCCC1 (stereo not drawn) [Example 13] | 6.72 |
| CCCCCCC(CCC(=O)OCC(COC(=O)CCCCCC(=O)OCCC(C)CCC=C(C)C)COC(=O)CCCCCC(=O)OCCC(C)CCC=C(C)C)OC(=O)NCCN1CCCC1 (stereo not drawn) [Example 9] | 6.85 |
| C=CC(C)(CCC=C(C)C)OC(=O)CCCCCC(=O)OCC(COC(=O)CCCCCC(=O)OC(C)(C=C)CCC=C(C)C)COC(=O)CCC(CCCCCC)OC(=O)NCCN1CCCC1 (stereo not drawn) [Example 10] | 6.814 |
| C=C(C)C(CC=C(C)C)COC(=O)CCCCCC(=O)OCC(COC(=O)CCCCCC(=O)OCC(CC=C(C)C)C(=C)C)COC(=O)CCC(CCCCCC)OC(=O)NCCN1CCCC1 (stereo not drawn) [Example 12] | 6.68 |
| CCCCCCC(CCC(=O)OCC(COC(=O)CCCCCC(=O)OCC=C(C)CCC=C(C)CCC=C(C)C)COC(=O)CCCCCC(=O)OCC=C(C)CCC=C(C)CCC=C(C)C)OC(=O)NCCN1CCCC1 (stereo not drawn) [Example 14] | 6.78 |
| CCCCCCC(CCC(=O)OCC(COC(=O)CCCCCC(=O)OCC=C(C)CCCC(C)CCCC(C)CCCC(C)C)COC(=O)CCCCCC(=O)OCC=C(C)CCCC(C)CCCC(C)CCCC(C)C)OC(=O)NCCN1CCCC1 (stereo not drawn) [Example 15] | 6.32 |
| CCCCCCC(CCC(=O)OCC(COC(=O)CCCCCC(=O)OCCC(C)CCCC(C)C)COC(=O)CCCCCC(=O)OCCC(C)CCCC(C)C)OC(=O)NCCN1CCCC1 (stereo not drawn) [Example 8] | 6.74 |
| CCCCCCC(CCC(=O)OCC(COC(=O)CCCCCC(=O)OC/C=C(/C)CCC=C(C)C)COC(=O)CCCCCC(=O)OC/C=C(/C)CCC=C(C)C)OC(=O)NCCN1CCCC1 (stereo not drawn) [Example 11] | 6.85 |

----------
# protocol text: Dynamic light scattering (DLS) of LNP preparations: size (diameter) and polydispersity
# Assay type: physicochemical
# condition description: Table D; LNP formulation ratio 47.5:40:2.5:10, ABE mRNA + PCSK9 sgRNA 1:1
# Procedure: A ratio of aqueous to organic solvent of approximately 2:1 or 3:1 was maintained during mixing using differential flow rates. […] DLS-LNP preparation hydrodynamic diameter and polydispersity index (PDI) is measured using high throughput dynamic light scattering (DLS) (DynaPro plate reader II, Wyatt). LNP preparations are diluted 1×PBS to an appropriate concentration and analyzed.
property name: Diameter (nm)

| molecule | property name | units of measure | measured |
| --- | --- | --- | --- |
| CCCCCCC(CCC(=O)OCC(COC(=O)CCCCCC(=O)OCC=C(C)CCC=C(C)CCC=C(C)C)COC(=O)CCCCCC(=O)OCC=C(C)CCC=C(C)CCC=C(C)C)OC(=O)NCCN1CCCC1 (stereo not drawn) | Diameter (nm) | nm | 77.15 |
| CCCCCCC(CCC(=O)OCC(COC(=O)CCCCCC(=O)OCCC(C)CCCC(C)C)COC(=O)CCCCCC(=O)OCCC(C)CCCC(C)C)OC(=O)NCCN1CCCC1 (stereo not drawn) | Diameter (nm) | nm | 110.35 |
| C=C(C)C(CC=C(C)C)COC(=O)CCCCCC(=O)OCC(COC(=O)CCCCCC(=O)OCC(CC=C(C)C)C(=C)C)COC(=O)CCC(CCCCCC)OC(=O)NCCN1CCCC1 (stereo not drawn) | Diameter (nm) | nm | 163 |

I: CCCCCCC(CCC(=O)OCC(COC(=O)CCCCCC(=O)OCCC(C)CCC=C(C)C)COC(=O)CCCCCC(=O)OCCC(C)CCC=C(C)C)OC(=O)NCCN1CCCC1 (stereo not drawn)
II: CCCCCCC(CCC(=O)OCC(COC(=O)CCCCCC(=O)OCC=C(C)CCCC(C)CCCC(C)CCCC(C)C)COC(=O)CCCCCC(=O)OCC=C(C)CCCC(C)CCCC(C)CCCC(C)C)OC(=O)NCCN1CCCC1 (stereo not drawn)
Of the two listed items, I and II , which carries the larger Diameter (nm) figure? Write down the label attached to your selection.
I

a: CCCCCCC(CCC(=O)OCC(COC(=O)CCCCCC(=O)OC/C=C(\C)CCC=C(C)C)COC(=O)CCCCCC(=O)OC/C=C(\C)CCC=C(C)C)OC(=O)NCCN1CCCC1 (stereo not drawn)
b: C=CC(C)(CCC=C(C)CCC=C(C)C)OC(=O)CCCCCC(=O)OCC(COC(=O)CCCCCC(=O)OC(C)(C=C)CCC=C(C)CCC=C(C)C)COC(=O)CCC(CCCCCC)OC(=O)NCCN1CCCC1 (stereo not drawn)
Please indicate which item has the smaller measured Diameter (nm): a versus b Write down the label attached to your selection.
b
(b: 73.3 nm, a: 134.3 nm)
